assay: AP1 Signaling Pathway (AID 357); conditions: ME-180 (cervical carcinoma) AP-1-bla reporter, EGF-induced, beta-lactamase ratio, 5 h; at 7.69 µM (top of the series) unless noted;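 note: ME-180 reporter cells stimulated with EGF at its EC50 level; % is set by controls: 0 for no effect and ±100 for the full control effect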
Inconclusive results are not listed. Activity calls are given as the source filed them. Calls come from the whole dose curve; as a rule, active = well fitted curve in either direction with a large enough effect (not every such curve was filed as active); inconclusive = small, poorly fitted or top-dose-only effect, or another doubt; inactive = flat fitted curve, though single readings scatter.
# maps each entry to its activity change, negative = inhibition

[
  {
    "Query Smiles": "CC(=O)O[C@H]1CC[C@@]2(C)[C@@H](CC[C@H]3[C@H]2CC(=O)[C@@]2(C)[C@@H]3C[C@H]3CC(C)=CC(=O)[C@H]32)C1",
    "activity change, negative = inhibition": "5.01% (inactive)"
  }
]

Exam item: I am curious: what activity change, negative = inhibition value has been reported for `NCCSc1nc(-c2ccccc2)c(-c2ccccc2)o1` ?
Marked response: 2.27% (inactive)

Exam item: I am curious: what activity change, negative = inhibition value has been reported for `CC(C)(C)c1c2c(c(C(C)(C)C)c3c1OCN(Cc1ccccc1)C3)OCN(Cc1ccccc1)C2` ?
Marked response: 0.594% (inactive)

Exam item: I am curious: what activity change, negative = inhibition value has been reported for `C[C@@H](N)/C(N)=N/O` ?
Marked response: -1.61% (inactive)

Exam item: I am curious: what activity change, negative = inhibition value has been reported for `NNC(=O)CCc1ccc2ccc3ccccc3c2c1` ?
Marked response: -3.44% (inactive)

Exam item: I am curious: what activity change, negative = inhibition value has been reported for `O=C(O)[C@@H]1[C@@H](C(=O)NCc2cccnc2)[C@@H]2C=C[C@@H]1O2` ?
Marked response: 8.06% (inactive)

Exam item: I am curious: what activity change, negative = inhibition value has been reported for `O=C(Nc1ccc2c(c1)Cc1ccccc1-2)[C@@H]1[C@H](C(=O)O)[C@]2(Cl)C(Cl)=C(Cl)[C@@]1(Cl)C2(Cl)Cl` ?
Marked response: 9.85% (inactive)

Exam item: I am curious: what activity change, negative = inhibition value has been reported for `C(=Nc1ccc2c(c1)Cc1ccccc1-2)c1ccccn1` ?
Marked response: -0.541% (inactive)

Exam item: I am curious: what activity change, negative = inhibition value has been reported for `O=C(C[C@@H](c1ccccc1)N1CCCCC1)c1ccccc1` ?
Marked response: 2.69% (inactive)

Exam item: I am curious: what activity change, negative = inhibition value has been reported for `O=C(N[C@@]1(C(=O)O)C[C@@H]1c1ccccc1)c1ccccc1` ?
Marked response: 7.86% (inactive)

Exam item: I am curious: what activity change, negative = inhibition value has been reported for `Cc1ccc(CN2CCN(Cc3ccc(C)o3)[C@@H](C)C2)o1` ?
Marked response: -2.23% (inactive)

Exam item: I am curious: what activity change, negative = inhibition value has been reported for `C[C@H](CC(=O)O)C(C(=O)O)C(=O)O` ?
Marked response: -3.69% (inactive)

Exam item: I am curious: what activity change, negative = inhibition value has been reported for `CC1(C)[C@@H](CC(=O)O)CCC[C@@H]1CC(=O)O` ?
Marked response: 2.47% (inactive)

Exam item: I am curious: what activity change, negative = inhibition value has been reported for `CC1=C/C(=C(/c2ccc(O)c(C)c2)c2ccccc2C(=O)O)C=CC1=O` ?
Marked response: 12.7% (inactive)

Exam item: I am curious: what activity change, negative = inhibition value has been reported for `Oc1ccc(Cn2c(-c3ccc(O)cc3)nc3ccccc32)cc1` ?
Marked response: 0.507% (inactive)

Exam item: I am curious: what activity change, negative = inhibition value has been reported for `COc1ncc2nc(-c3cc(F)cc(F)c3)c(=O)n(C3CC3)c2n1` ?
Marked response: 5.87% (inactive)

Exam item: I am curious: what activity change, negative = inhibition value has been reported for `C[C@@H](N1CCOCC1)[C@@](O)(c1ccccc1)c1ccccn1` ?
Marked response: 2.55% (inactive)
